# experimentalTarget: UDP-3-O-acyl-N-acetylglucosamine deacetylase (Aquifex aeolicus (strain VF5), UniProt O67648)
# protocolSummary: ITC
# studyConditions: pH 7; 25 °C
// reported Kd per item
Output spec: scalar in nM, unitless text.

These recorded examples may help you get a feel for the data.
Prompt: Reported Kd, molecule `NC[C@H](NC(=O)c1ccc(-c2ccc(Br)cc2)cc1)C(=O)NO` : ____
Completion: 242

Prompt: Reported Kd, molecule `O=C(NO)[C@H]1COC(c2ccc(F)cc2)=N1` : ____
Completion: 14800

Prompt: Reported Kd, molecule `C[C@@H](O)[C@H](NC(=O)c1ccc(-c2ccccc2)cc1)C(=O)NO` : ____
Completion: 224

Prompt: Reported Kd, molecule `O=C(NO)c1csc(-c2ccc(F)c(C(F)(F)F)c2)n1` : ____
Completion: 3500

Prompt: Reported Kd, molecule `C[C@@H](O)[C@H](NC(=O)c1ccc(-c2ccc(Br)cc2)cc1)C(=O)NO` : ____
Completion: 122

Now let's try a different one.
Prompt: Reported Kd, molecule `NC[C@H](NC(=O)c1ccc(-c2ccccc2)cc1)C(=O)NO` : ____
Completion: 732

###

# experimentalTarget: UDP-3-O-acyl-N-acetylglucosamine deacetylase (Aquifex aeolicus (strain VF5))
# Sequence (O67648 whole entry): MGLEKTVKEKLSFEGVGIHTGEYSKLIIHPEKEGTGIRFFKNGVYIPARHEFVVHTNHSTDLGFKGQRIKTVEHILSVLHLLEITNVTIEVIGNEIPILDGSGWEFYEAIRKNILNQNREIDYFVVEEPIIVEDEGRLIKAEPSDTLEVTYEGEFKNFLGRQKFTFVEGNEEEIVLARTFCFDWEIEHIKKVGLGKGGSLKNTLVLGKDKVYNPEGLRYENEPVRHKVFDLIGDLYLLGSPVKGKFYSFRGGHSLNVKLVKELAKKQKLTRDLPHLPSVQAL
# protocolSummary: ITC
# studyConditions: pH 7; 25 °C
recordedEndpoint: pKd
Quick note: pKd values are minus log10 of concentrations in mol/L.

These recorded examples may help you get a feel for the data.
Prompt: Reported pKd, molecule O=C(NO)[C@H]1COC(c2cc3cc(F)ccc3[nH]2)=N1 [CS272] : ____
Completion: 5.65

Prompt: Reported pKd, molecule O=C(NO)[C@H]1COC(c2ccc(F)c(C(F)(F)F)c2)=N1 [CS271] : ____
Completion: 5.40

Now let's try a different one.
Prompt: Reported pKd, molecule C[C@@H](O)[C@H](NC(=O)c1ccc(C#Cc2ccccc2)cc1)C(=O)NO [CS259] : ____
Completion: 5.92

This collection of values is drawn from BindingDB's records for aid1799746.
